# RUN_DESCRIPTION: Permeability in CALU-3 cells
# Format: in vitro ADME
# CONDITION_DETAILS: human; basal-to-apical, CALU-3 monolayers, pH 7.4, 37° C., 10 μM compound
ENDPOINT_NAME: Papp B→A
The reply must contain the numeric value and, after it, the unit.

[in] Please look at this compound and report its Papp B→A: CCOP(=O)([O-])CCCn1c(CNC(=O)c2nc(Cl)c(N)nc2N)[n+](CC)c2cc(OC)ccc21
[out] 0.05 ×10⁻⁶ cm/s

----------
# RUN_DESCRIPTION: Permeability in CALU-3 cells
# Type: in vitro ADME
# CONDITION_DETAILS: human; basal-to-apical, CALU-3 monolayers, pH 7.4, 37° C., 10 μM compound
ENDPOINT_NAME: Papp B→A at 90 min, 10 μM (×10⁻⁶ cm/s)
Just the number please, in ×10⁻⁶ cm/s, no unit attached.

SMILES_STR	ASSAY_VALUE
CC[n+]1c(CNC(=O)c2nc(Cl)c(N)nc2N)n(C2CCN(C(C)=O)CC2)c2ccccc21.O=C[O-]	0.45
CCOP(=O)(OCC)c1ccc(CCC[n+]2c(CNC(=O)c3nc(Cl)c(N)nc3N)n(CC)c3cc(OC)ccc32)cc1.O=C([O-])C(F)(F)F	0.28
CCn1c(CNC(=O)c2nc(Br)c(N)nc2N)[n+](CCOCCOCCO)c2ccc(OC)cc21.O=C([O-])C(F)(F)F	0.4

[in] Please indicate Papp B→A at 90 min, 10 μM recorded for CC[n+]1c(CNC(=O)c2nc(Cl)c(N)nc2N)n(CCCP(=O)(O)O)c2ccc(OC)cc21.O=C([O-])C(F)(F)F
[out] 0.08
